System: human red blood cells (hRBCs)
Format: cell-based
Settings: red cells of human, 1 h
Residues, ends and D or L forms follow the SMILES beside them.
Known HC50 of a selection of molecules

Ask: I'd like to know its HC50. The molecule in question is CCCCCCCCCCCCCC(=O)N[C@@H](CCS(C)(=O)=O)C(=O)N[C@@H](CCCNC(=N)N)C(=O)N[C@@H](CCCNC(=N)N)C(N)=O [compound 58, C14-M(O2)RR-NH2] (HELM PEPTIDE1{[CCCCCCCCCCCCCC(=O)[*:2]].[CS(=O)(=O)CC[C@H](N[*:1])C(=O)[*:2]].R.R.[am]}$$$$V2.0)
Result: 70.11 (±2.93) µg/mL

Ask: I'd like to know its HC50. The molecule in question is CCCCCCCCCCCCCCCCCC(=O)N[C@@H](CCCNC(=N)N)C(=O)N[C@@H](CCCNC(=N)N)C(N)=O [compound 6, C18-RR-NH2, reference compound] (HELM PEPTIDE1{[CCCCCCCCCCCCCCCCCC(=O)[*:2]].R.R.[am]}$$$$V2.0)
Result: 25.19 (±0.67) µg/mL

Ask: I'd like to know its HC50. The molecule in question is CCCCCCCCCCCCCC(=O)N[C@@H](CCCCN)C(=O)N[C@@H](CCCNC(=N)N)C(=O)N[C@@H](CCCNC(=N)N)C(N)=O [compound 42, C14-KRR-NH2] (HELM PEPTIDE1{[CCCCCCCCCCCCCC(=O)[*:2]].K.R.R.[am]}$$$$V2.0)
Result: 212.08 (±6.12) µg/mL

Ask: I'd like to know its HC50. The molecule in question is CCCCCCCCCCCCCC(=O)N[C@H](C(=O)N[C@@H](CCCNC(=N)N)C(=O)N[C@@H](CCCNC(=N)N)C(N)=O)[C@@H](C)CC [compound 38, C14-IRR-NH2] (HELM PEPTIDE1{[CCCCCCCCCCCCCC(=O)[*:2]].I.R.R.[am]}$$$$V2.0)
Result: 78.92 (±4.38) µg/mL

---

Known MIC E2 of a selection of molecules
System: K. aerogenes ATCC 13048
Type: cell-based, Klebsiella aerogenes
Conditions: ATCC 13048, 18 h
Residues, ends and D or L forms follow the SMILES beside them.

Some solved entries appear below for comparison.
Molecule	MIC E2
CCCCCCCCC(CCCCCC)C(=O)N[C@@H](CCCNC(=N)N)C(=O)N[C@@H](CCCNC(=N)N)C(N)=O (stereo partly drawn)	>256 (-) µg/mL
CCCCCCCCCCCC(=O)N[C@@H](CCCNC(=N)N)C(=O)N[C@@H](CCCNC(=N)N)C(N)=O [compound 3, C12-RR-NH2, reference compound] (HELM PEPTIDE1{[CCCCCCCCCCCC(=O)[*:2]].R.R.[am]}$$$$V2.0)	>256 (-) µg/mL

Ask: I'd like to know its MIC E2. The molecule in question is CCCCCCCCCCCC(=O)N[C@@H](CCCNC(=N)N)C(=O)N[C@@H](CCCNC(=N)N)C(=O)N[C@@H](CCCNC(=N)N)C(N)=O [compound 81, C12-RRR-NH2] (HELM PEPTIDE1{[CCCCCCCCCCCC(=O)[*:2]].R.R.R.[am]}$$$$V2.0)
Result: >256 (-) µg/mL

---

Test system: C. albicans ATCC 10231
Format: cell-based, Candida albicans
Conditions: ATCC 10231, 24 h, pH 7
Residues, ends and D or L forms follow the SMILES beside them.
Measurement name: MIC CA (mg/L)

Some solved entries appear below for comparison.
Molecule	Test target	MIC CA [mg/L]
CCCCCCCCCCCCCC(=O)N[C@H](C(=O)N[C@@H](CCCNC(=N)N)C(=O)N[C@@H](CCCNC(=N)N)C(N)=O)[C@@H](C)O [compound 90, C14-TRR-NH2] (HELM PEPTIDE1{[CCCCCCCCCCCCCC(=O)[*:2]].T.R.R.[am]}$$$$V2.0)	C. albicans ATCC 10231	8
CCCCCCCCCCCCCC(=O)N[C@H](C(=O)N[C@@H](CCCNC(=N)N)C(=O)N[C@@H](CCCNC(=N)N)C(N)=O)C(C)C [compound 94, C14-VRR-NH2] (HELM PEPTIDE1{[CCCCCCCCCCCCCC(=O)[*:2]].V.R.R.[am]}$$$$V2.0)	C. albicans ATCC 10231	8
CCCCCCCCCCCCCC(=O)N[C@@H](CCSC)C(=O)N[C@@H](CCCNC(=N)N)C(=O)N[C@@H](CCCNC(=N)N)C(N)=O [compound 50, C14-MRR-NH2] (HELM PEPTIDE1{[CCCCCCCCCCCCCC(=O)[*:2]].M.R.R.[am]}$$$$V2.0)	C. albicans ATCC 10231	4

P: CCCCCCCCCCCCCC(=O)N[C@@H](CC(=O)O)C(=O)N[C@@H](CCCNC(=N)N)C(=O)N[C@@H](CCCNC(=N)N)C(N)=O [compound 18, C14-DRR-NH2] (HELM PEPTIDE1{[CCCCCCCCCCCCCC(=O)[*:2]].D.R.R.[am]}$$$$V2.0)
Q: CCCCCCCCCCCCCC(=O)N[C@@H](Cc1ccc(O)cc1)C(=O)N[C@@H](CCCNC(=N)N)C(=O)N[C@@H](CCCNC(=N)N)C(N)=O [compound 102, C14-YRR-NH2] (HELM PEPTIDE1{[CCCCCCCCCCCCCC(=O)[*:2]].Y.R.R.[am]}$$$$V2.0)
Ask: Please state the entry with greater MIC CA among P and Q . # reply format: chosen label
Result: P

---

Tested on: human red blood cells (hRBCs)
Type: cell-based
Conditions: red cells of human, 1 h
Residues, ends and D or L forms follow the SMILES beside them.
Known HC50 of a selection of compounds

Some solved entries appear below for comparison.
Compound	Recorded measurement
CCCCCCCCCCCCCC(=O)N[C@@H](CCC)C(=O)N[C@@H](CCCNC(=N)N)C(=O)N[C@@H](CCCNC(=N)N)C(N)=O [compound 70, C14-NvaRR-NH2] (HELM PEPTIDE1{[CCCCCCCCCCCCCC(=O)[*:2]].[Nva].R.R.[am]}$$$$V2.0)	42.04 (±1.38) µg/mL
CCCCCCCCC(CCCCCC)C(=O)N[C@@H](CCCNC(=N)N)C(=O)N[C@@H](CCCNC(=N)N)C(N)=O (stereo partly shown) [compound 105, C10(6)-RR-NH2]	200.25 (±16.07) µg/mL

Ask: I'd like to know its HC50. The compound in question is CCCCCCCCCCCCCC(=O)N[C@H](C(=O)N[C@@H](CCCNC(=N)N)C(=O)N[C@@H](CCCNC(=N)N)C(N)=O)[C@@H](C)O [compound 90, C14-TRR-NH2] (HELM PEPTIDE1{[CCCCCCCCCCCCCC(=O)[*:2]].T.R.R.[am]}$$$$V2.0)
Result: 43.43 (±0.90) µg/mL

Ask: I'd like to know its HC50. The compound in question is CCCCCCCCCCCC(=O)N[C@H](C(=O)N[C@@H](CCCNC(=N)N)C(=O)N[C@@H](CCCNC(=N)N)C(N)=O)C(C)C [compound 93, C12-VRR-NH2] (HELM PEPTIDE1{[CCCCCCCCCCCC(=O)[*:2]].V.R.R.[am]}$$$$V2.0)
Result: 246.30 (±14.12) µg/mL

---

Assay: Determination of peptide hydrophobicity with RP-HPLC (adjusted retention time)
Assay type: physicochemical
Settings: Table 3; adjusted retention time as hydrophobicity; RP-HPLC C18, linear 10–55% acetonitrile over 60 min, 0.1% TFA, 25.0 °C, UV 214 nm, triplicate
Residues, ends and D or L forms follow the SMILES beside them.
Measurement name: tR’ (min)

Compound	Measurement name	Recorded measurement
CCCCCCCCCC(=O)N[C@@H](Cc1c[nH]c2ccccc12)C(=O)N[C@@H](CCCNC(=N)N)C(=O)N[C@@H](CCCNC(=N)N)C(N)=O [compound 96, C10-WRR-NH2] (HELM PEPTIDE1{[CCCCCCCCCC(=O)[*:2]].W.R.R.[am]}$$$$V2.0)	tR’	34.31
CCCCCCCCCCCC(=O)N[C@@H](Cc1ccccc1)C(=O)N[C@@H](CCCNC(=N)N)C(=O)N[C@@H](CCCNC(=N)N)C(N)=O [compound 25, C12-FRR-NH2] (HELM PEPTIDE1{[CCCCCCCCCCCC(=O)[*:2]].F.R.R.[am]}$$$$V2.0)	tR’	41.45
CCCCCCCCCCCCCC(=O)N[C@@H](Cc1c[nH]c2ccccc12)C(=O)N[C@@H](CCCNC(=N)N)C(=O)N[C@@H](CCCNC(=N)N)C(N)=O [compound 98, C14-WRR-NH2] (HELM PEPTIDE1{[CCCCCCCCCCCCCC(=O)[*:2]].W.R.R.[am]}$$$$V2.0)	tR’	47.11

Every entry's value here was drawn from paper PMC7024302.
